The values you see were collected from paper PMC5540273.

System: ABL1-nonphosphorylated
Settings: concentration: 1 μM, replicates: in singlicate; n = 1;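 also: KINOMEscan kinase panel screen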
Recorded %Inh, one value per entry.
endpoint-name: %Inh (%)

[[record]]
record_smiles = "Cc1cn2c(=O)cc(N3CCOCC3)nc2n1Cc1cccc(Cl)c1Cl"
system_tested = "ABL1-nonphosphorylated"
reading = 73

[[record]]
record_smiles = "Fc1ccc(-c2nn3c(OCC(F)(F)F)cccc3c2-c2ccncc2)cc1"
system_tested = "ABL1-nonphosphorylated"
reading = 0

[[record]]
record_smiles = "Fc1ccc(-c2ncn(CCCN3CCOCC3)c2-c2cccnc2)cc1"
system_tested = "ABL1-nonphosphorylated"
reading = 30

[[record]]
record_smiles = "CNc1ncnc2[nH]ncc12"
system_tested = "ABL1-nonphosphorylated"
reading = 34

[[record]]
record_smiles = "COc1ccc(COc2cc(-n3cnc4ccccc43)sc2C(N)=O)cc1"
system_tested = "ABL1-nonphosphorylated"
reading = 0


---

Tested on: IKK-epsilon
Construct: gene IKBKE
Conditions: concentration: 1 μM, replicates: in singlicate; n = 1
endpoint-name: %Inh (%)

[[record]]
compound = "C[C@@H](Oc1cc(-n2cnc3ccc(NC(=O)NC(C)(C)C)cc32)sc1C(N)=O)c1ccccc1Cl"
result_units = "%"
reading = 23

[[record]]
compound = "O=C(NCCNc1ccnc(Nc2ccc(F)cc2)n1)Nc1ccccc1F"
result_units = "%"
reading = 0

[[record]]
compound = "CCCCCc1nc2c(N)ncnc2n1CCCCC"
result_units = "%"
reading = 0

[[record]]
compound = "COc1cc2ncn(-c3cc(OCc4sccc4Cl)c(C(N)=O)s3)c2cc1OC"
result_units = "%"
reading = 0

[[record]]
compound = "NCC(NC(=O)c1cc(-c2cn[nH]c2)c(-c2ccnc3[nH]ccc23)s1)c1ccccc1.O=C(O)C(F)(F)F.O=C(O)C(F)(F)F (centres unmarked)"
result_units = "%"
reading = 24

[[record]]
compound = "Cc1nnc(-c2ccc3occ(-c4ccc(C(C)O)cc4)c3c2)o1 (centres unmarked)"
result_units = "%"
reading = 3

[[record]]
compound = "Cc1c2ccc(N(C)c3ccnc(Nc4cccc(S(N)(=O)=O)c4)n3)cc2nn1Cc1ccccc1.Cl.Cl"
result_units = "%"
reading = 2

[[record]]
compound = "O=C(NCCNc1ccnc(Nc2ccc(F)cc2)n1)c1cc2ccccc2s1"
result_units = "%"
reading = 22

[[record]]
compound = "Cc1nnc(-c2ccc3ncc(-c4ccc(S(C)=O)cc4)n3c2)o1 (centres unmarked)"
result_units = "%"
reading = 0

[[record]]
compound = "CC(C)Oc1ccc2c(-c3ccnc(Nc4ccc(N5CCN(C)CC5)cc4)n3)cnn2n1"
result_units = "%"
reading = 54

[[record]]
compound = "c1ccc(-c2cc(-c3c[nH]nc3-c3ccccn3)ccn2)cc1"
result_units = "%"
reading = 0

[[record]]
compound = "CN(C(=O)c1ccc(-c2cc(-c3c[nH]nc3-c3ccccn3)ccn2)cc1)C1CCOCC1"
result_units = "%"
reading = 0

[[record]]
compound = "O=C(Nc1n[nH]c2cc(-c3cccc(F)c3)ccc12)C1CC1"
result_units = "%"
reading = 14

[[record]]
compound = "NS(=O)(=O)CCc1cccc(Nc2nccc(-c3c(-c4cccc(NC(=O)c5c(F)cccc5F)c4)nn4ccccc34)n2)c1"
result_units = "%"
reading = 33

[[record]]
compound = "Cc1ccc(NC(=O)c2ccnc(N3CCN(C)CC3)c2)cc1-c1ccc(C(=O)NCC2CC2)cc1"
result_units = "%"
reading = 0

[[record]]
compound = "O=C(Nc1cccc(-c2nn3ncccc3c2-c2ccnc(Nc3cccc(C(F)(F)F)c3)n2)c1)c1c(F)cccc1F"
result_units = "%"
reading = 0

[[record]]
compound = "Cc1cccc(-c2nc(-c3ccc(S(C)(=O)=O)cc3)sc2-c2ccncc2)c1"
result_units = "%"
reading = 0


---

Recorded %Inh, one value per entry.
Tested on: ERN1
Conditions: concentration: 1 μM, replicates: in singlicate; n = 1
endpoint-name: %Inh (%)

[[record]]
molecule = "Fc1ccc(-c2nn3c(OCC(F)(F)F)cccc3c2-c2ccncc2)cc1 [GW514784]"
system_tested = "ERN1"
reading = 0

[[record]]
molecule = "N#Cc1c(N2CCOCC2)sc(-c2ccn[nH]2)c1-c1ccc(Cl)cc1"
system_tested = "ERN1"
reading = 4

[[record]]
molecule = "CCc1ccnc(/C=C/c2n[nH]c3cc(Sc4ccccc4C(=O)NC)ccc23)c1"
system_tested = "ERN1"
reading = 0

[[record]]
molecule = "CC(C)Oc1ccc2c(-c3ccnc(Nc4ccc(N5CCN(C)CC5)cc4)n3)cnn2n1 [GW696155]"
system_tested = "ERN1"
reading = 62

[[record]]
molecule = "CC(=O)Nc1ccc(COc2ccc(Nc3ccnc4cc(-c5ccccn5)ccc34)cc2)cc1.Cl [GW440148]"
system_tested = "ERN1"
reading = 17


---

Tested on: LIMK1
Details: concentration: 1 μM, replicates: in singlicate; n = 1
Returns: string. Value is 1 if measured %Inh is below 4%, and 0 if it is greater than or equal to it.

[[record]]
molecule = "CCn1cnc2c(N)ncnc21"
label_class = 0

[[record]]
molecule = "COc1cc2c(cc1OCCN1CCN(C)CC1)ncc1c3ccc(C#N)cc3[nH]c21"
label_class = 1

[[record]]
molecule = "NS(=O)(=O)c1cccc(-c2ccc3nccc(-c4cccc(S(N)(=O)=O)c4)c3c2)c1"
label_class = 1

[[record]]
molecule = "O=c1cc(N2CCOCC2)nc2n(Cc3cccc(F)c3)ccn12"
label_class = 0

[[record]]
molecule = "O=C(NCCNc1ccnc(Nc2ccc(F)cc2)n1)Nc1ccccc1F"
label_class = 1

[[record]]
molecule = "CN(C(=O)c1ccc(-c2cc(-c3c[nH]nc3-c3ccccn3)ccn2)cc1)C1CCOCC1"
label_class = 1

[[record]]
molecule = "Nc1nc(-c2ccc3c(N)n[nH]c3c2)cc(N2CCCC2)n1"
label_class = 1

[[record]]
molecule = "[2H]C([2H])(c1cccc(C(F)(F)F)c1C)n1ccn2c(=O)nc(N3CCOCC3)cc12"
label_class = 0

[[record]]
molecule = "CN1c2ccc(CNc3ccc(F)cc3)cc2-c2c(cnn2C)S1(=O)=O"
label_class = 1

[[record]]
molecule = "O=C(Nc1cccc(-c2nn3ncccc3c2-c2ccnc(Nc3cccc(C(F)(F)F)c3)n2)c1)c1c(F)cccc1F"
label_class = 0

[[record]]
molecule = "Nc1nccc(-c2c(-c3ccc(F)cc3)ncn2C2CCN(CC(F)(F)F)CC2)n1"
label_class = 0

[[record]]
molecule = "Cc1cn2c(=O)cc(N3CCOCC3)nc2n1Cc1cccc(Cl)c1Cl"
label_class = 1

[[record]]
molecule = "NCC(NC(=O)c1cc(-c2cn[nH]c2)c(-c2ccnc3[nH]ccc23)s1)c1ccccc1.O=C(O)C(F)(F)F.O=C(O)C(F)(F)F (stereo not drawn)"
label_class = 1

[[record]]
molecule = "COc1ccc(S(=O)(=O)NC2CCN(c3cc(C)nc(Nc4cccc(C#N)c4)n3)CC2)cc1.O=C(O)C(F)(F)F"
label_class = 1

[[record]]
molecule = "Fc1ccc(-c2ncn(CCCN3CCOCC3)c2-c2cccnc2)cc1"
label_class = 0

[[record]]
molecule = "CN1c2ccc(NCc3ccc(F)cc3)cc2-c2c(cnn2C)S1(=O)=O"
label_class = 1

[[record]]
molecule = "O=C(NCCNc1ccnc(Nc2ccc(F)cc2)n1)c1cc2ccccc2s1"
label_class = 1


---

Recorded %Inh, one value per entry.
Test system: TGFBR1
Conditions: concentration: 1 μM, replicates: in singlicate; n = 1
endpoint-name: %Inh (%)

[[record]]
compound = "[2H]C([2H])(c1cccc(C(F)(F)F)c1C)n1ccn2c(=O)nc(N3CCOCC3)cc12 [GSK2336394]"
reading = 5

[[record]]
compound = "COc1ccc(Nc2nccc(N3CCC(NC(=O)Nc4cccc(C(C)=O)c4)C3)n2)cc1 (stereo not drawn) [GSK1379731]"
reading = 0

[[record]]
compound = "CCc1ccnc(/C=C/c2n[nH]c3cc(Sc4ccccc4C(=O)NC)ccc23)c1"
reading = 0

[[record]]
compound = "CCc1nc(-c2cccc(C)c2)c(-c2ccnc(NCc3ccccc3)c2)s1"
reading = 2

[[record]]
compound = "COc1cc2ncn(-c3cc(OCc4sccc4Cl)c(C(N)=O)s3)c2cc1OC [GSK448459]"
reading = 11

[[record]]
compound = "Cc1cccc(Cn2ccn3c(=O)cc(N4CCOCC4)nc23)c1 [GSK2297542]"
reading = 3

[[record]]
compound = "O=C(NOCC1CC1)c1ccc(F)c(F)c1Nc1ccc(I)cc1Cl"
reading = 0

[[record]]
compound = "O=C(Nc1cccc(-c2nn3ncccc3c2-c2ccnc(Nc3cccc(C(F)(F)F)c3)n2)c1)c1c(F)cccc1F [GSK299495]"
reading = 8

[[record]]
compound = "CCCCCc1nc2c(N)ncnc2n1CCCCC [SKF-97255]"
reading = 3

[[record]]
compound = "Cc1ccc(NC(=O)c2ccnc(N3CCN(C)CC3)c2)cc1-c1ccc(C(=O)NCC2CC2)cc1 [GW775604]"
reading = 25

[[record]]
compound = "Nc1nc(-c2ccc3c(N)n[nH]c3c2)cc(N2CCCC2)n1 [GSK2227430]"
reading = 0

[[record]]
compound = "Fc1ccc(-c2ncn(CCCN3CCOCC3)c2-c2ccccn2)cc1 [SB-211742]"
reading = 52

[[record]]
compound = "CNc1ncnc2[nH]ncc12 [SKF-18355]"
reading = 47

[[record]]
compound = "Cl.Oc1cccc(Nc2ccnc3cc(-c4ccncc4)ccc23)c1 [GW494601]"
reading = 76

[[record]]
compound = "Cc1nnc(-c2ccc3ncc(-c4ccc(S(C)=O)cc4)n3c2)o1 (stereo not drawn)"
reading = 9

[[record]]
compound = "Cc1cn2c(=O)cc(N3CCOCC3)nc2n1Cc1cccc(Cl)c1Cl [GSK2334006]"
reading = 15

[[record]]
compound = "COc1cc2c(cc1OC[C@@H](O)CO)ncc1c3ccc(C#N)cc3[nH]c21"
reading = 23

[[record]]
compound = "NS(=O)(=O)c1cccc(-c2ccc3ncc(N4CCOCC4)nc3c2)c1 [GSK1535721]"
reading = 6

